Signal LNA1-Bi reference
System: LNA1-Bi
Experiment: Hybridoma antibody specificity immunoassay
Assay type: binding
Conditions: hybridoma antibody subclones, Table 1-4
# value in OD; strip the unit string

Known Signal LNA1-Bi results, listed for orientation:
MOLECULE	OUTPUT_UNIT	Signal LNA1-Bi
1.4.10 (antibody, listed as Mus musculus, V domains shown) VH: QIQLRESGPGLVAPSQSLSITCTVSGFSLVNYGIHWVRQPPGKGLEWLGVIWAGGSTIYNSALMSRLSISRDNSKNQVFLEMNSLQTYDTAMYYCARDRPFDGFFFSYWGQGTALTVSS VL: DVLMTQTPLSLPVSLGDQASISCRSSQAIVHRSGNTFLEWYLQKPGQSPKLLIYKVSNRFSGVPDRFSGSGSGTDFTLKINRVEAEDLGVYYCFQGSHVPYTFGSGTKLEIK	OD	3.398
1.7.15 (antibody, V domains shown) VH: QVQLKQSGPSFVQPSQSLSITCTVSGFSLTTYGVHWVRQSPGKGLEWLGVIWRSGGTDYNAAFMSRLSITKDNSKSQVFFKMNSLQTDDTAIYYCTNLYYWGQGTTLTVSS VL: DIVMTQATFSNPVTLGTSVSISCRSSKSLLRSNGITYLYWYLQKPGQSPQLLIYQMSNLASGVPDRFSSSGSGTDFTLRISRVEAEDVGVYYCGQNLELPYTFGSGTKVEIK	OD	2.195

// moving on: another record for Signal LNA1-Bi
For record 1.2.8 (antibody, listed as Mus musculus, V domains shown) VH: QIQLRESGPGLVAPSQSLSITCTVSGFSLTNYGVHWVRQPPGKGLEWLGVIWAGGSTIYNSALMSRLSISRDNSKSQVFLEMNSLQTYDTAMYYCARDRPFDGFFFSYWGQGTALTVSS VL: DVLMTQTPLSLPVSLGDQASISCRSSQAIVHRSGNTFLEWYLQKPGQSPKLLIYKVSNRFSGVPDRFSGSGSGTDFTLKINRVEAEDLGVYYCFQGSHVPYTFGSGTKLEIK the listed Signal LNA1-Bi is 2.330
